- Test system: HCT-15
- Test Description: NCI tumour cell line growth inhibition, 48 h
Readout Label: GI50

Worked examples follow.
- Compound: "Cc1cccnc1N/C=C1\\C(=O)NC(=O)N(C)C1=O"
  Test Result: "> 100 µM"
- Compound: "Cc1ccc(/N=C2\\SC(=NN(C)C)S\\C2=N/c2ccc(C)cc2)cc1"
  Test Result: "> 100 µM"
- Compound: "O=C(O)C1CCCCC1C(=O)Nc1nc2ccccc2[nH]1 (configuration not stated)"
  Test Result: "> 100 µM"
- Compound: "COc1ccc(CSCc2cc(OC)c(OC)c(OC)c2)cc1"
  Test Result: "> 45.3 µM"
- Compound: "CCOC1(COP(=O)(OCc2ccccc2)OCc2ccccc2)COC(COP(=O)(OCc2ccccc2)OCc2ccccc2)(OCC)CO1 (configuration not stated)"
  Test Result: "> 100 µM"

I would be grateful if you could provide GI50 for each of the following entries.
1. CC(=O)C1CC=C(C)CC1 (configuration not stated)
2. CC(C)C(=O)Nc1nc2[nH]cnc2c(=O)[nH]1
3. CSC1NNC2(C(=O)N1)c1ccccc1-c1ccccc12 (configuration not stated)
4. CCOC(=O)N1N=C(/C(C)=N/OC)C(C)[S+]1[O-] (configuration not stated)
5. O=P1(Oc2ccccc2)N(CCCl)CCN1c1ccccc1 (configuration not stated)
6. O=C(Nc1ccccc1C(=O)NCCCO)/C(=C/c1ccccc1O)NC(=O)c1ccccc1
7. Nc1nc2ncn(CCO)c2c(=S)[nH]1

Given back:
> 100 µM
> 100 µM
> 10 µM
> 100 µM
> 100 µM
> 78.2 µM
> 100 µM
